Values from the C3SDB collision cross section collection

- recorded.conditions: [M+Na]+; instrument: DT; single field, calibrated with ESI Low Concentration Tuning Mix (Agilent)
Lab note: cut-off is 200 Å². Strictly less in collision cross section (N2) is class 1. Exactly 200 Å² or more is class 0.

Past entries and their recorded results:
Nc1ncnc2c1ncn2[C@H]1C[C@H](O)[C@@H](COP(=O)(O)O)O1 [DEOXYADENOSINE MONOPHOSPHATE] | class 1
N[C@@H](Cc1ccc(O)c([N+](=O)[O-])c1)C(=O)O | class 1
C=CC1=C(C)C(/C=c2\[nH]/c(=C\c3[nH]c(/C=C4\NC(=O)C(C)=C4C=C)c(C)c3CCC(=O)O)c(CCC(=O)O)c2C)=NC1=O | class 0
NCCCNCCCCNCCCN | class 1
C[C@@H]1OC(O)[C@@H](O)[C@H](O)[C@@H]1O (some centres not stated) | class 1

Shift focus to the following entry.
collision cross section (N2) strictly < 200 Å² for this molecule? "COC1=C(OC)C(=O)C(C/C=C(\C)CC/C=C(\C)CC/C=C(\C)CC/C=C(\C)CC/C=C(\C)CC/C=C(\C)CC/C=C(\C)CC/C=C(\C)CC/C=C(\C)CCC=C(C)C)=C(C)C1=O" class 0
